molecular target: LATS1 (Homo sapiens); assay: RBC HotSpot kinase assay (33P-ATP, P81 filter-binding), LATS1; assay type: biochemical; conditions: biochemical kinase inhibition; read-out: LATS1 IC50
Sequence (O95835 whole entry): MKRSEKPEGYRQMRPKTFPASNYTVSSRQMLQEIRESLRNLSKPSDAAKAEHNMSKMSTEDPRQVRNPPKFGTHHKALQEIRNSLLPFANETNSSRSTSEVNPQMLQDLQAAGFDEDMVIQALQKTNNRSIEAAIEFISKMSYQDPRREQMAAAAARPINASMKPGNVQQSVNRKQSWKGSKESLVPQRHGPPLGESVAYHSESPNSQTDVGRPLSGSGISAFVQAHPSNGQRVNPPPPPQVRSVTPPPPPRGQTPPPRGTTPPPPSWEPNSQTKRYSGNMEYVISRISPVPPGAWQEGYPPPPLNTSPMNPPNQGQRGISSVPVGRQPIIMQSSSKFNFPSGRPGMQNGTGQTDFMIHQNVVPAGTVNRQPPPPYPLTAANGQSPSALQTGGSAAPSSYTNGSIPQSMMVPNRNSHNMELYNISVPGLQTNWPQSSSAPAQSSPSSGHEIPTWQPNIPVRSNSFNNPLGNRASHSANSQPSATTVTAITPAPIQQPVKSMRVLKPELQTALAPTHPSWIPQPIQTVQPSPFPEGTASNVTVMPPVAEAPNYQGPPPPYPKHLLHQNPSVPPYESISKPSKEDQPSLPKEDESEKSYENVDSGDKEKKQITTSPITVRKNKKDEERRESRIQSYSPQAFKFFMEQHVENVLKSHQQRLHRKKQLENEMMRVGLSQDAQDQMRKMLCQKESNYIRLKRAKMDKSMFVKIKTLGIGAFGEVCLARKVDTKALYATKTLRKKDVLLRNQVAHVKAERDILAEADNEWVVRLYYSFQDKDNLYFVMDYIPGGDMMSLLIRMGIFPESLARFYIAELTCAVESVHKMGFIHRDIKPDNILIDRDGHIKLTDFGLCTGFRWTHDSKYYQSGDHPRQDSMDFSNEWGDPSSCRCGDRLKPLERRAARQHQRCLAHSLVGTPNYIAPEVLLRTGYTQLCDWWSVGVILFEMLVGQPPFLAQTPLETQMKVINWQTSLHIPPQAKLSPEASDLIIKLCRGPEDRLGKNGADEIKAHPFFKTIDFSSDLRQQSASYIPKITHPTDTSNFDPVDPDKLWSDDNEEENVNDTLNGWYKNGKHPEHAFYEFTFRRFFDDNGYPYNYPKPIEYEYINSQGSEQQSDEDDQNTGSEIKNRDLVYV
Measure Name: pIC50
Numbers only, as −log10 of the molar value.

// pIC50 lookup, key: Cc1cc(-c2ccnc3[nH]cc(C#N)c23)ccc1[C@@]1(O)[C@H](C)CN(C(=O)CN)C[C@@H]1C [Compound 2005] 8.48

Same question for Cc1cc(-c2ccnc3[nH]cc(C#N)c23)cc(F)c1[C@@]1(O)[C@H](C)CN(C(=O)[C@H](N)CO)C[C@@H]1C (single isomer, unassigned) [Compound 2006] please. 8.44

Same question for Cc1cc(-c2ccnc3[nH]cc(C#N)c23)cc(F)c1[C@@]1(O)[C@H](C)CN(C(=O)C(N)C(F)(F)F)C[C@@H]1C (some centres unmarked) [Compound 2017] please. 8.09

Same question for CNCC(=O)N1C[C@@H](C)[C@](O)(c2c(C)cc(-c3ccnc4[nH]cc(C#N)c34)cc2F)[C@@H](C)C1 [Compound 2012] please. 8.30

Same question for Cc1cc(-c2ccnc3[nH]cc(C#N)c23)cc(F)c1[C@@]1(O)[C@H](C)CN(C2CCS(=O)(=O)CC2)C[C@@H]1C [Compound 2002] please. 7.96

Hi, could you look up pIC50 for each item in my list?
1. Cc1cc(-c2ccnc3[nH]cc(C#N)c23)cc(F)c1[C@@]1(O)[C@H](C)CN(C(=O)[C@@H]2CCCN2)C[C@@H]1C [Compound 2013]
2. Cc1cc(-c2ccnc3[nH]cc(C#N)c23)ccc1[C@@]1(O)[C@H](C)CN(C(=O)[C@H](N)CO)C[C@@H]1C [Compound 2016]
3. N#Cc1c[nH]c2nccc(-c3ccc(C4(O)CCNCC4)cc3)c12 [Compound 2001]

1. 8.24
2. 8.04
3. 8.48

====

target: LATS2 (Homo sapiens, UniProt Q9NRM7); experiment: RBC HotSpot kinase assay (33P-ATP, P81 filter-binding), LATS2; type: biochemical; conditions: Table 28, biochemical kinase assay; read-out: LATS2 IC50
Sequence (Q9NRM7 whole entry): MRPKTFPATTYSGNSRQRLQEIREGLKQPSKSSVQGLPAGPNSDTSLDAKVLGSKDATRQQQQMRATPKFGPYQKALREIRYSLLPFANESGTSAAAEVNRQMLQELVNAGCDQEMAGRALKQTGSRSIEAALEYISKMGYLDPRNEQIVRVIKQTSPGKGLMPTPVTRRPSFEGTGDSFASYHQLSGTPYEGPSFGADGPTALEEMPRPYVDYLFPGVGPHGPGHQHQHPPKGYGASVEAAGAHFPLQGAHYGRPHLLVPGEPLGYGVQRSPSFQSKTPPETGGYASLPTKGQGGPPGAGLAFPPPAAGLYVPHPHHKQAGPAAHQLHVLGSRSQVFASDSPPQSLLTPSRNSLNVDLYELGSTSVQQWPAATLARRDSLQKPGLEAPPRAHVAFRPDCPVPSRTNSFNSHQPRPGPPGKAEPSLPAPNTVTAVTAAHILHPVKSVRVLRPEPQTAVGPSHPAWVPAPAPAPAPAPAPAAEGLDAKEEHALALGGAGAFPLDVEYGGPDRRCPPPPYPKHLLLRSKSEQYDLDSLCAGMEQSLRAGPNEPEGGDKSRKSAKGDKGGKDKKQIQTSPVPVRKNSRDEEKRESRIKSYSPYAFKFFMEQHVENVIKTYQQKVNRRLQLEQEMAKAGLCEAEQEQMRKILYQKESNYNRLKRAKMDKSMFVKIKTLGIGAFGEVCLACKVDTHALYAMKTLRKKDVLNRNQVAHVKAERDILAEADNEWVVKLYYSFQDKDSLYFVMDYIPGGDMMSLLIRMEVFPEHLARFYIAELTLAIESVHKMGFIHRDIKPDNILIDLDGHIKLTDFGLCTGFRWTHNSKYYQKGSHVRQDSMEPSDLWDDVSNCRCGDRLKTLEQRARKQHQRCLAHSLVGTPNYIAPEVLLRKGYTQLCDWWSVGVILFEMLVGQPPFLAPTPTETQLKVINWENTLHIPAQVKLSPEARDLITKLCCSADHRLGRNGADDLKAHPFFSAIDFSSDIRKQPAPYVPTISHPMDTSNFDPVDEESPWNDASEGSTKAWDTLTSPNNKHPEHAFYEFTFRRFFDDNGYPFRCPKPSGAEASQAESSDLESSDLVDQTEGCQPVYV
Give pIC50 for every item shown.
Give bare numbers, as −log10 of the molar value.

The examples below pair each entry with its known result.
// pIC50 lookup, key: CNCC(=O)N1C[C@@H](C)C(O)(c2c(F)cc(-c3ccnc4[nH]cc(F)c34)cc2F)[C@@H](C)C1 (stereo partly shown) [Compound 83] 7.67

Same question for Cc1cc(-c2ccnc3[nH]cc(F)c23)cc(Cl)c1[C@@]1(O)[C@H](C)CN(C2COC2)C[C@@H]1C [Compound 49] please. 6.37

Same question for CCc1cc(-c2ccnc3[nH]cc(F)c23)ccc1[C@@]1(O)[C@H](C)CN(C2CCS(=O)(=O)CC2)C[C@@H]1C [Compound 306] please. 8.27

Same question for NCc1ccc(-c2cc(N)nc3[nH]ccc23)cc1 [Compound 225] please. 5.19

Same question for Cc1cc(-c2ccnc3[nH]cc(F)c23)cc(F)c1C1(O)[C@H](C)CN(C2CCOC2)C[C@@H]1C (stereo partly shown) [Compound 34] please. 8.08

Okay, next one:
// pIC50 lookup, key: COC(=O)C1(c2ccc(-c3ccnc4[nH]cc(F)c34)cc2Cl)CCNCC1 [Compound 198] 8.00

Origin of the recorded values: patent US20250361230A1
